Molecular target: human JAK1 (a.a. 837-1142) (Homo sapiens, UniProt P23458)
Construct: The catalytic domains of human JAK1 (a.a. 837-1142); His tag (N); made in house; host or cells: insect cells (baculovirus)
Sequence (P23458 849-1154): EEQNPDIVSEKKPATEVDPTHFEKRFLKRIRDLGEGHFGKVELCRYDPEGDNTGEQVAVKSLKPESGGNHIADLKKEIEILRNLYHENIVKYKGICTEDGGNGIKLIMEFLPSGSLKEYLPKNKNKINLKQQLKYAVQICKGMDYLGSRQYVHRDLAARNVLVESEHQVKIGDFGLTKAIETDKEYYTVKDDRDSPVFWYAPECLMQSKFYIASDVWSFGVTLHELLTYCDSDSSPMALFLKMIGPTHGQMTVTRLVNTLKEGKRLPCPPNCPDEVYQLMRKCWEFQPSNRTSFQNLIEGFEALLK
Assay: In vitro JAK kinase assay (HTRF, phosphorylation of biotinylated peptide), JAK1
Assay type: biochemical
Details: 1 mM ATP; Examples 92-162; read-out: JAK1 IC50 (nM) @ 1 mM ATP
Counter-ions that a name gives are not always drawn.
property: IC50

Study these solved cases before continuing.
CCC(CN1CCN(C(=O)c2ccc(F)cc2F)CC1)n1cc(-c2ncnc3[nH]ccc23)cn1 (centres unmarked): < 20 nM
COc1ccc(Cl)cc1S(=O)(=O)N1CCCN(CC(CC#N)n2cc(-c3ncnc4[nH]ccc34)cn2)CC1 (centres unmarked): < 20 nM
CCC(CN1CCN(C(=O)c2ccc(F)cc2)CC1)n1cc(-c2ncnc3[nH]ccc23)cn1 (centres unmarked): 20 to 50 nM

Give measured IC50 for every item shown.
1. CCC(CN1CCN(C(=O)c2cc(F)ccc2F)CC1)n1cc(-c2ncnc3[nH]ccc23)cn1 (centres unmarked)
2. CCC(CN1CCN(C(=O)c2cccc(F)c2F)CC1)n1cc(-c2ncnc3[nH]ccc23)cn1 (centres unmarked)
3. CCC(CN1CCN(S(=O)(=O)c2cc(F)cc(F)c2)CC1)n1cc(-c2ncnc3[nH]ccc23)cn1 (centres unmarked)

20 to 50 nM
20 to 50 nM
< 20 nM

Give measured IC50 for every item shown.
1. CCC(CN1CCN(C(=O)c2ccc(O)cc2Cl)CC1)n1cc(-c2ncnc3[nH]ccc23)cn1 (centres unmarked)
2. N#CCC(CN1CCN(C(=O)c2ccc(C#N)cc2F)CC1CO)n1cc(-c2ncnc3[nH]ccc23)cn1 (single isomer, unassigned) [156—peak 2, trifluoroacetate Salt]
3. CCC(CN1CCN(S(=O)(=O)c2ccc(F)cc2C)CC1)n1cc(-c2ncnc3[nH]ccc23)cn1 (centres unmarked)
4. CCC(CN1CCN(S(=O)(=O)c2cc(F)ccc2F)CC1)n1cc(-c2ncnc3[nH]ccc23)cn1 (centres unmarked)

< 20 nM
> 100 nM
< 20 nM
< 20 nM

Give measured IC50 for every item shown.
1. Cc1c(Nc2ccccc2F)ncnc1N1CCC(C(CC#N)n2cc(-c3ncnc4[nH]ccc34)cn2)CC1 (centres unmarked)
2. N#CCC(CN1CCN(C(=O)c2ccc(C#N)cc2F)CC1CO)n1cc(-c2ncnc3[nH]ccc23)cn1 (single isomer, unassigned) [156—peak 3, trifluoroacetate Salt]
3. CCC(CN1CCN(S(=O)(=O)c2ccc(Br)s2)CC1)n1cc(-c2ncnc3[nH]ccc23)cn1 (centres unmarked)
4. CCC(CN1CCN(S(=O)(=O)c2ccccc2Cl)CC1)n1cc(-c2ncnc3[nH]ccc23)cn1 (centres unmarked)

1. < 20 nM
2. 50 to 100 nM
3. < 20 nM
4. < 20 nM

====

Target: Jak2 (a.a. 828-1132) (Homo sapiens, UniProt O60674)
Construct: Jak2 (a.a. 828-1132); His tag (N); made in house; host or cells: insect cells (baculovirus)
Sequence (O60674 828-1132): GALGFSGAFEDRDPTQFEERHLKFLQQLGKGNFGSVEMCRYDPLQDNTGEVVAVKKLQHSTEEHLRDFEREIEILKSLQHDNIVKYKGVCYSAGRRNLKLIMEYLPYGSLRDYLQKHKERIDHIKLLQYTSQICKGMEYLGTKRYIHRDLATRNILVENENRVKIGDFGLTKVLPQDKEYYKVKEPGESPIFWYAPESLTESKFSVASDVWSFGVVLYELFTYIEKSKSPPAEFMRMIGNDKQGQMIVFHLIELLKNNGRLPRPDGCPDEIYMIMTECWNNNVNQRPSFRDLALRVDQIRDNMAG
Assay: In vitro JAK kinase assay (HTRF, phosphorylation of biotinylated peptide), JAK2
Assay type: biochemical
Conditions: 1 mM ATP; Examples 92-162; read-out: JAK2 IC50 (nM) @ 1 mM ATP
Description: Compounds herein were tested for inhibitory activity of JAK targets according to the following in vitro assay described in Park et al., Analytical Biochemistry 1999, 269, 94-104. […] The phosphorylated peptide was detected by homogenous time resolved fluorescence (HTRF). […] Binding to the Europium labeled antibody took place for 40 minutes and HTRF signal was measured on a Fusion plate reader (Perkin Elmer, Boston, Mass.). […]
So I've got a bunch of compounds here, and I need their IC50 values.

Cc1c(Nc2ccccc2)ncnc1N1CCC(C(CC#N)n2cc(-c3ncnc4[nH]ccc34)cn2)CC1 (stereo not drawn): > 100 nM

Give measured IC50 for every item shown.
1. CCC(CN1CCN(S(=O)(=O)c2cc(F)cc(F)c2)CC1)n1cc(-c2ncnc3[nH]ccc23)cn1 (stereo not drawn)
2. CCC(CN1CCN(C(=O)c2ccc(O)cc2F)CC1)n1cc(-c2ncnc3[nH]ccc23)cn1 (stereo not drawn)
3. CCC(CN1CCN(S(=O)(=O)c2ccc(F)cc2F)CC1)n1cc(-c2ncnc3[nH]ccc23)cn1 (stereo not drawn)

["50 to 100 nM", "< 20 nM", "50 to 100 nM"]

Give measured IC50 for every item shown.
1. CCC(CN1CCN(C(=O)c2cccc(F)c2F)CC1)n1cc(-c2ncnc3[nH]ccc23)cn1 (stereo not drawn)
2. N#CCC(C1CCN(c2cc(Oc3ccccc3)ncn2)CC1)n1cc(-c2ncnc3[nH]ccc23)cn1 (stereo not drawn)
3. CCC(CN1CCN(S(=O)(=O)c2ccccc2C#N)CC1)n1cc(-c2ncnc3[nH]ccc23)cn1 (stereo not drawn)
4. N#CCC(CN1CCN(C(=O)c2ccc(C#N)cc2F)C(CO)C1)n1cc(-c2ncnc3[nH]ccc23)cn1 (mixture of isomers)

1. 50 to 100 nM
2. 50 to 100 nM
3. 50 to 100 nM
4. > 100 nM
